test: Lipophilicity, logD of the compound in octanol and water at pH 7.4 by shake-flask method; format: physicochemical
reported_property: logD

| mol | reported |
| --- | --- |
| Fc1ccc(Cc2c[nH]c3ncc(-c4cnn(C5CCNCC5)c4)cc23)cc1 | 2.4 |
| c1ccc(Cc2c[nH]c3ncc(-c4cnn(C5CCNCC5)c4)cc23)cc1 | 2.31 |
| Fc1cccc(Cc2c[nH]c3ncc(-c4cnn(C5CCNCC5)c4)cc23)c1 | 2.4 |
| Fc1ccccc1Cc1c[nH]c2ncc(-c3cnn(C4CCNCC4)c3)cc12 | 2.5 |
| O=C1NCc2c(-c3cnc4[nH]cc(Cc5ccccc5)c4c3)c[nH]c21 | 4 |
